# tgt: T1, human CGRP receptor extracellular domain (ECD) (human, UniProt Q16602 23-138; O60894 27-117)
# T1 construct: also called CGRP receptor ECD; human CGRP receptor ECD
# experimental.details: yeast-displayed Fab, FACS, 1 nM human CGRP receptor ECD
Consider the following binders and their measured Normalized Binding Signal/Display Signal (B/D) readings.
Please reply with the bare figure in ratio and do not write the unit itself.

- anti-CGRP receptor variant 01, yeast-displayed Fab (Fab, V domains shown, also called Variant Ab ID 01) VH: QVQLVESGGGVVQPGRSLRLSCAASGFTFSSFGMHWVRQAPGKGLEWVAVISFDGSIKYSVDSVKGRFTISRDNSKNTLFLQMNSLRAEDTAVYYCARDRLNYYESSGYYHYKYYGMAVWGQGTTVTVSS VL: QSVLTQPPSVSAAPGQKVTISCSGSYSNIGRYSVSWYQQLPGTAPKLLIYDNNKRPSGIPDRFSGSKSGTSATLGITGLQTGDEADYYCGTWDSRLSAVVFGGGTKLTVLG: 0.21

Here is the next item to consider.
The reported Normalized Binding Signal/Display Signal (B/D) of the binder anti-CGRP receptor variant 12, yeast-displayed Fab (Fab, V domains shown, also called Variant Ab ID 12) VH: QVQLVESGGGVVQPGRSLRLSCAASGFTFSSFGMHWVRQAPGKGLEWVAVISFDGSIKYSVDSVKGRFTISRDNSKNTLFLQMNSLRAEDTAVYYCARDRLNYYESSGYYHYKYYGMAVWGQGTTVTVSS VL: QSVLTQPPSVSAAPGQKVTISCSGSRSNIGRYSVSWYQQLPGTAPKLLIYDNRYRAQGIPDRFSGSKSGTSATLGITGLQTGDEADYYCGTWDWATTSVVFGGGTKLTVLG was 0.35

Cited source: patent US20220363770A1
